Source listed as the supplement of paper PMC9170038.

Tested on: K4 kissing-loop RNA reporter
protocolDescription: apparent KD of K4 kissing-loop reporter; higher = weaker reporter binding
conditionDescription: Eterna round: R107; input ligand: arginine 13.2 mM
observable: apparent KD of K4 kissing-loop reporter

Solved entries:
INSERT INTO assay_data (polymersequence, observable, result) VALUES
  ('UUUUUAAUCGCAGAUACCAGUCCAGAAUGAAUACUAUAGUGAUGUUAUAAUAAAGGGAAGGACCCUUGGCAGCUGUACUAUAUUU [AstrosSsTheB#6]', 'apparent KD of K4 kissing-loop reporter', '308 nM'),
  ('AAAUUCUUUUUUUUAUUUAACUUUUCAGAAGGAGCGUGGUAGUACACAGGUAGGUCGCUGAAUUUUAGACUAGUGAUGUUAGUUA [JR_SSArginiA_Sub008]', 'apparent KD of K4 kissing-loop reporter', '156 nM');

// next entry
Request: API: value(readout= apparent KD of K4 kissing-loop reporter, system= K4 kissing-loop RNA reporter, query= UCUGCAAAGUCGGCCGCCACUCCGGGCCCUAUAAAUGGGCGCAGUGAUGUUGCGGCUAGGCCUCUGAGGACCGGGACUUUGUAGA [Atlesoqu] )
Result: 54.3 nM

---

System: MS2 coat protein
protocolDescription: apparent KD of MS2 coat protein; designed switch direction (-1 OFF switch, 1 ON switch): -1; higher = weaker reporter binding
conditionDescription: input ligand: FMN 200 uM
Field: apparent KD of MS2 coat protein. Provide a value for each of the sequences that follow.

Quick one: give me apparent KD of MS2 coat protein for each item below, same order please.
1. GGUUAGCGAGGAUAUACAUGAGGAUCACCCAUGUGAUCCUAAGGCUGAUCAAGCCUAUGUAGAAGGCGCAAAUC [salish99_ex3_r4_008] (Eterna round: R97, puzzle: Exclusion 3)
2. UAGACCUCGUCAGGAUAUCCAGGUUCUUCGCCCGGAGAAGGGACAUGAGGAUCACCCAUGUAGGAGAGCAUCGCUGUCGAGCAA [Redixeri] (Eterna round: R96, puzzle: Exclusion NG 1)
3. CUUAAUUGUGACAUGGGUGACAUGAGGAUCACCCAUGUCACAAGCUUUUUGCUCGUCUUAUAAUUAACCCAUGUCAC [Stov1/13-A3] (Eterna round: R97, puzzle: Sensor, turn-off variant 1)

Result:
["40.1 nM", "19.3 nM", "30 nM"]

Answer for every listed entry: what is its apparent KD of MS2 coat protein? The entries follow.
1. CAAGAAUCUAUAUAAAGGCACAUGAGGAUCACCCAUGUGGUCCGUAAAAUCAUGCGACAAGCCAUUUGCUCGUCGUG [Eternabot (L2) Solution 30] (Eterna round: R97, puzzle: Sensor, turn-off variant 1)
2. CGGUGCUUCUGGAAACAUGAGGAUCACCCAUGUUGAGUUAGCGAGGAUAUCGGUAACACUUGUUAUGAGAAGGCGCGAACCAGA [Ex NG3 #35] (Eterna round: R96, puzzle: Exclusion NG 3)

Result:
33.2 nM
13.6 nM

---

Test system: MS2 coat protein
protocolDescription: apparent KD of MS2 coat protein; designed switch direction (-1 OFF switch, 1 ON switch): -1; higher = weaker reporter binding
conditionDescription: input ligand: none
Label 1.0 for high-side apparent KD of MS2 coat protein (at or above 40 nM) and 0.0 for low-side apparent KD of MS2 coat protein (below it).

Record excerpt, results attached:
INSERT INTO measurements (polymersequence, targetortestsystem, categorylabel) VALUES
  ('GGAUCAUAUGUCAGGAUAUGCUGGACCUUGGUUCAGCAGAAGGGACAUGAGGAUCACCCAUGUCAUGGAGAUCC [Mat - Exclusion 4 - Eli Mod - D53] (Eterna round: R97, puzzle: Brourd''s mod of Exclusion 4)', 'MS2 coat protein', 1.0),
  ('AAUUCGGCAGGAUAUACAUGAGGAUCACCCAUGUAAAUUUUUCGUUUAACUUGAAUGUGUAGAAGGGCCAUUAA [Ex3 #63] (Eterna round: R97, puzzle: Exclusion 3)', 'MS2 coat protein', 0.0),
  ('ACAUGCCUUGCAGGAUAUAGGACACAUGAGGAUCACCCAUGUGGUUUCAUGUCUAACCAAGCGUCCUAGAAGGGCGGGAACAUG [Ex NG2 #28] (Eterna round: R96, puzzle: Exclusion NG 2)', 'MS2 coat protein', 0.0),
  ('ACUUAUUGAGGAUAUACAGAAAAUUACAUGAGGAUCACCCAUGUUCUUCAAUGUAUAUAUGUAGAAGGCAGAAGAA [JL-ex5-4.26 Malcolm mod] (Eterna round: R97, puzzle: Exclusion 5)', 'MS2 coat protein', 0.0);

Please examine the following record next.
Request: Determine whether measured apparent KD of MS2 coat protein meets or exceeds 40 nM for UGAGUAGAUCCGAAGGGAGACAUGAGGAUCACCCAUGUAUUAAGUUUUUAUGCUCGUCGCCUACGUAACCGUAGGAC [Eternabot (Original) Solution 2] (Eterna round: R97, puzzle: Sensor, turn-off variant 1)
Result: 1.0

---

Provide the recorded apparent KD of MS2 coat protein for the entries that follow.
System: MS2 coat protein
protocolDescription: apparent KD of MS2 coat protein; designed switch direction (-1 OFF switch, 1 ON switch): -1; higher = weaker reporter binding
conditionDescription: Eterna round: R95; input ligand: FMN 200 uM
One number for each entry, in nM.

Solved cases below.
INSERT INTO measurements (polymersequence, unittag, readoutnumber) VALUES
  ('AAAAAACAAGGAUAUACGGAUGAAGAGAGUCUUAAUUUUUGACAUGAGGAUCACCCAUGUAGAAGGUGUUAAAA [JR_Exclusion2_Sub017] (puzzle: Exclusion 2)', 'nM', 58.9),
  ('AUCAUGUCAGGAUAUAUGACAUGGCUCUUCGGAGCAAGAUCAUAGAAGGGACAUGAGGAUCACCCAUGUAGAUC [Ex4-3: 23] (puzzle: Exclusion 4)', 'nM', 41.9);

Request: Form entry - test system: MS2 coat protein; read-out: apparent KD of MS2 coat protein; sequence: CUGAGGUAGCGGUCCUAUGACAUGAGGAUCACCCAUGUACCUUGCUACAAGCUUUUUGCUCGUCUUAUGAUUCUCGG [JL Atriat mod 8] (puzzle: Sensor v3, turn-off variant 1)
Result: 58.1

---

Test system: MS2 coat protein
protocolDescription: apparent KD of MS2 coat protein; higher = weaker reporter binding
conditionDescription: Eterna round: R107; input ligand: arginine 13.2 mM
observable: apparent KD of MS2 coat protein (nM)
Numbers only, in nM.

Examples from the recorded data:
INSERT INTO measurements (polymersequence, readoutnumber) VALUES
  ('GUACAUGAGGAUCACCCAUGUAUAGUUGAAGGAGCGACCGGAGGGUCAGGUAGGUCGCAGCACAUGGCGUAAACCCGUGUAUGCC [#1 Exclusion - Arginine A Attempt #24 (Inspired by Pi)]', 18.5),
  ('ACAUUAGCCACGGCCGCCACUGCUUUAUGAUUAUAAGGAUUAAUGAACAUGAGGAUCACCCAUGUCAGGACCGGGUGCCUACCAU [SSTryp B #4]', 31.4);

Now let's try a different one.
Request: Which apparent KD of MS2 coat protein value is on record for GGCUAGUGCAUCGAUACCAGCUACAUGAGGAUCACCCAUGUAGGAAGGGUGGUACUCGAUAGCCCUUGGCAGCGAACACCUCCGG [Quoran] ?
Result: 18.7

---

Test system: K4 kissing-loop RNA reporter;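 also: bound reporter read as fluorescence of individual clusters on recovered sequencing chips by microscopy, with normalized cluster intensities fitted with a binding model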
protocolDescription: apparent KD of K4 kissing-loop reporter; higher = weaker reporter binding
conditionDescription: Eterna round: R107; input ligand: FMN 200 uM
Binary classification by apparent KD of K4 kissing-loop reporter, with 400 nM as an inclusive lower bound for Fulfilled; all other cases are Not fulfilled.

INSERT INTO assay_data (polymersequence, categorylabel) VALUES
  ('GUGAAGGAGCUGCAGUGAUGUUGCAGAGACUAGGAUAUCAGGAAACUGAGAAGGAGUCAACUCCUUCACCUAGACAACAUCACUA [[F]''''-[K1]-[K2]-[F1]-[F2]-[F2]''-[F1]''-[K]''_Design2]', 'Not fulfilled'),
  ('GCGUUACUGAAAGGAUAUGAUCAACAUAGUGGUCAGUGAUGUUGGCAGGCCUCGUGGCGAGGUAGAUCAGAAGGUUCAUUACGAC [theeternabot_sameState_KL_FMN_B_11]', 'Fulfilled'),
  ('AGAAGAGUGAUGUUCUUCUAUAUCUCAGAAGGAGCGACAUUAAUGUCAGGUAGGUCGCUGAGAUGAAAUCUCACACAGAUCUUGG [Arg A SS t8a]', 'Not fulfilled'),
  ('ACUAUGGAGUGAUGUUCCCGCGUCAUUGAUACCAGAAUGUAUACCUUCCCUUGGCAGCAAUUCAUCGCACGUAUACUUAUACAAG [theeternabot_sameState_KL_Theo_A_31]', 'Fulfilled'),
  ('AGUGAACGAGCGGCCGCCACUAAAUGAGUGAUGUUCGUGAGUAGUGCUGUUCUCAUGAUUGUUUUUAGGACCGGGUUCGAUGUUG [edcclmullin]', 'Fulfilled'),
  ('AGAGAGGUGUUUUUUUGAUGUGAGUAAUGGCGAGGACCGGUACGGCCGCCACUCGGGUGAUGUUAGUGAUGUUGAUGUAGUGAUG [p''pmullin]', 'Not fulfilled'),
  ('CCAGGAUGAUGAGGAUGAUAAAUUACUGAAGGAGCGCAUAUGGUUGCAGGUAGGUCGCGGUGAAUAAGUAUAGUGAUGUUAUGCC [SSArgA.Y]', 'Fulfilled'),
  ('UGCUGGUCAUAGCGUAGUGUGAGCCGCUCACGAGGACCGGUACGGCCGCCACUCGUUACAAAGCAGUGAUGUUGCAAUAGGCUCU [theeternabot_sameState_KL_Trp_A_24]', 'Not fulfilled'),
  ('UGUCAUUGGUCGGCCGCCACUCCAUAACGAGUGAUGUUCUAAAAGACGGAUCGAAAGAUCUGUCGGAGGACCGGGACCGAUGACU [FiskerMod 6 - Jieux - Same State - Tryptophan B]', 'Fulfilled'),
  ('GUGCGCGCGGCGGCCGCCACUCGCAUGAGAGUGAUGUUCUCGGGACUGACGGAAGUCAGUCAUGGGAGGACCGGGCCGGGCUGCG [#2 Same State - Tryptophan B Attempt #13 (HarryS)]', 'Not fulfilled');

Request: Tell me whether apparent KD of K4 kissing-loop reporter is at least 400 nM here: CCUAUCUCAUACGAUACCAGUGAAUUUAUGUUUAUUAGCAGUGAUGUUGCGUUCCAAGUACACCCUUGGCAGCGUAUGGGAUAGG [Ex Theophylline B K4 24]
Result: Not fulfilled

Request: One more sequence: "GCUAGGCAUGCAGGAUAUCGCCGAGUGAUGUUCGGUAGGCCGCUUUCUUUCUUUCUUUGCGGCCAGCGAGAAGGGCAUGCCUAGC"
Result: Not fulfilled

Request: CCAUCGCUAUUCGAUACCAGUCAGGAGGUCUUUGGCCUCCUAAUGGAGUGAUGUUCCUUAGACCCUUGGCAGCGAAUAGUGAUGG [Theophylline B K4 14] , same question.
Result: Fulfilled

Request: What do you have for GCAGUGAUGUUGCGGAUGUACAGUGGCGUGCGAGGACCGGUACGGCCGCCACUCGUACAGAGCAAGCUAAUACAUCGAUAGGUGA [whbob_SS_Tryp_A_m4] ?
Result: Fulfilled

Request: Again, but for UGAUACCAGACGGCCGCCACUCCCGUAAGUCAAAGACUUACGAAGAGAAUCGUCCAGUGAUGUUGGAGGACCGGGUCUGGUAUCU [FiskerMod 11 - Jieux - Exclusion - Tryptophan B]
Result: Fulfilled
